We begin with a simple list: items and their reported Ki.
Target: UniProtKB Q12809
Sequence (Q12809 whole entry): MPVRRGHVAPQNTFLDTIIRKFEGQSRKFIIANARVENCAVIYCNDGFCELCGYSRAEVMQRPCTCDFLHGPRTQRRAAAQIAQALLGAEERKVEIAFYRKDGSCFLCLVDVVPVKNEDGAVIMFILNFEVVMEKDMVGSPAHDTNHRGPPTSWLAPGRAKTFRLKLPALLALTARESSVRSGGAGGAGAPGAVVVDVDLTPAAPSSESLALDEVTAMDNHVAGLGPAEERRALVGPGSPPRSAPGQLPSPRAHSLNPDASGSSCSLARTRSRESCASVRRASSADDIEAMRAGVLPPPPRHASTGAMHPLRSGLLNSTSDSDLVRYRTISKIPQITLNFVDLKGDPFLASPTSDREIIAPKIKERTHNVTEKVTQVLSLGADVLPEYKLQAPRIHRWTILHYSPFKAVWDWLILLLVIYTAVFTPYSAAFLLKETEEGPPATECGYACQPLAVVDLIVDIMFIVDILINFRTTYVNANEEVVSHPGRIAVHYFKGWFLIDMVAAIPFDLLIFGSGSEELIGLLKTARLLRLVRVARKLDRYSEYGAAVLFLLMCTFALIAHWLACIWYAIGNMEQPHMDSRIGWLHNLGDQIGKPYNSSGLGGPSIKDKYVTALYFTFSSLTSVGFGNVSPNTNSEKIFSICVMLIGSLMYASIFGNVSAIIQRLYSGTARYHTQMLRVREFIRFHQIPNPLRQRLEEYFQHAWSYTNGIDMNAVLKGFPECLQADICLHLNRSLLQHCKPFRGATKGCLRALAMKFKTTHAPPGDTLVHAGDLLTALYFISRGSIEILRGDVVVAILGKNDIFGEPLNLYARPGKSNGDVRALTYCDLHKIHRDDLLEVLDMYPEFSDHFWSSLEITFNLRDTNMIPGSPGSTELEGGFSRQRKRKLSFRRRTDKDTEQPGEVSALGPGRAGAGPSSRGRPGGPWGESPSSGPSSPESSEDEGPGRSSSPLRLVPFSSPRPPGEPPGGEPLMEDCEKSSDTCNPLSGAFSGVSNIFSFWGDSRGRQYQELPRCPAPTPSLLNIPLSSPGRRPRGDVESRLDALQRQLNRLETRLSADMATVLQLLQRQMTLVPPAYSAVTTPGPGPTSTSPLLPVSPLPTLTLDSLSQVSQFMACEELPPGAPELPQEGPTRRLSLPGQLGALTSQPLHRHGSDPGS
Assay: PDSP hERG functional assay
Conditions: not binding

structureSmiles	targetOrSystem	unitSpec	Ki
CNC(=O)[C@@]12C[C@@H]1[C@@H](n1cnc3c(NCc4cccc(Cl)c4)nc(C#Cc4ccc(F)cc4)nc31)[C@H](O)[C@@H]2O	UniProtKB Q12809	µM	39.5
CNC(=O)[C@@]12C[C@@H]1[C@@H](n1cnc3c(NC)nc(C#Cc4ccc(F)c(F)c4)nc31)[C@H](O)[C@@H]2O	UniProtKB Q12809	µM	7.93
CNC(=O)[C@@]12C[C@@H]1[C@@H](n1cnc3c(NCc4cccc(Cl)c4)nc(C#Cc4ccccc4Cl)nc31)[C@H](O)[C@@H]2O	UniProtKB Q12809	µM	39.2
CNC(=O)[C@@]12C[C@@H]1[C@@H](n1cnc3c(NCc4cccc(Cl)c4)nc(C#Cc4ccc(F)c(F)c4)nc31)[C@H](O)[C@@H]2O	UniProtKB Q12809	µM	12.2

Recorded values, source paper PMC4032265.
